subject_of_test: T1, wild type monomeric full-length HIV-1 YU-2 gp120 (HIV-1 YU-2, UniProt P35961 32-498)
T1 construct: domain: gp120; also called gp120YU-2; gp120 YU-2
protocol_summary: SPR competition: gp120 YU-2 with increasing peptide over immobilised soluble CD4; competitor CD4
Bridges are numbered along the chain shown (N, C = ends). Where no end group is shown, it is not given here. [ ]: non-standard residue; d: D form.

{"binder": "DNI[4‑(4-(4-(thiophen-2-yl)phenyl)-1H-1,2,3-triazol-1-yl)proline]WK-NH2 (lactam 1-6, also called Compound 29N-2) [cPT 36 (29N-2)]", "IC50": "~66 nM"}
